tested on: HT-29; assay: Cytotoxicity against human HT29 cells after 72 hrs by MTT assay; assay type: cell-based; conditions: HT-29, 72 h
VALUE_KIND: log10(IC50) (log10 of the value in µM)
Please be aware that the numbers have been log10-transformed from IC50 in µM.

Take a look at these entries with their results.
INSERT INTO measurements (molecule, measured_result) VALUES
  ('C=C(C)[C@@H]1CC[C@]2(C(=O)OC)CC[C@]3(C)[C@H](CC[C@@H]4[C@@]5(C)Cc6nc7ccccc7nc6C(C)(C)[C@@H]5CC[C@]43C)[C@@H]12', 2.40),
  ('CC(C)[C@@H]1CC[C@]2(C(=O)O)CC[C@]3(C)[C@H](CC[C@@H]4[C@@]5(C)Cc6nc7ccccc7nc6C(C)(C)[C@@H]5CC[C@]43C)[C@@H]12', 2.09),
  ('COC(=O)[C@@]12CC[C@]3(C)[C@H](CC[C@@H]4[C@@]5(C)CC[C@H](OC(C)=O)C(C)(C)[C@@H]5CC[C@]43C)C1=C(C(C)C)C(=O)C2=O', 0.85);

Report log10(IC50) for each item below.
1. C=C(C)[C@@H]1CC[C@]2(C(=O)OCOC(=O)C(C)(C)C)CC[C@]3(C)[C@H](CC[C@@H]4[C@@]5(C)Cc6nccnc6C(C)(C)[C@@H]5CC[C@]43C)[C@@H]12
2. CC(=O)OC[C@@]12CC[C@]3(C)[C@@H](CC[C@@H]4[C@@]5(C)CCC(OC(C)=O)C(C)(C)[C@@H]5CC[C@]43C)C1=C(C(C)C)c1nc3ccccc3nc12 (stereo not given in full)
3. C=C(C)[C@@H]1CC[C@]2(C(=O)O)CC[C@]3(C)[C@H](CC[C@@H]4[C@@]5(C)CCC(=O)C(C)(C)[C@@H]5CC[C@]43C)[C@@H]12 [BETUNOLIC ACID]
4. C=C(C)[C@@H]1CC[C@]2(C(=O)O)CC[C@]3(C)[C@H](CC[C@@H]4[C@@]5(C)Cc6nc7ccccc7nc6C(C)(C)[C@@H]5CC[C@]43C)[C@@H]12
5. COC(=O)[C@]12CC[C@@H](C(C)C)[C@@H]1[C@H]1CC[C@@H]3[C@@]4(C)Cc5nccnc5C(C)(C)[C@@H]4CC[C@@]3(C)[C@]1(C)CC2

Result block:
1: 2.40; 2: 2.36; 3: 1.23; 4: 1.98; 5: 2.21

Report log10(IC50) for each item below.
1. C=C(C)[C@@H]1CC[C@]2(C(=O)OCOC(C)=O)CC[C@]3(C)[C@H](CC[C@@H]4[C@@]5(C)Cc6nccnc6C(C)(C)[C@@H]5CC[C@]43C)[C@@H]12
2. CC(=O)OC[C@@]12CC[C@]3(C)[C@H](CC[C@@H]4[C@@]5(C)CC[C@H](OC(C)=O)C(C)(C)[C@@H]5CC[C@]43C)C1=C(C(C)C)C(=O)C2=O

Result block:
[1.89, 2.40]
